target: Protein translocase subunit SecA (Escherichia coli (strain K12)) (UniProt P10408); assay: Assay to Identify E. coli SecA ATPase Inhibitors; format: functional; design: scale not given: direction of the effect not stated beside the values; conditions: 30 µM
Sequence (P10408 whole entry): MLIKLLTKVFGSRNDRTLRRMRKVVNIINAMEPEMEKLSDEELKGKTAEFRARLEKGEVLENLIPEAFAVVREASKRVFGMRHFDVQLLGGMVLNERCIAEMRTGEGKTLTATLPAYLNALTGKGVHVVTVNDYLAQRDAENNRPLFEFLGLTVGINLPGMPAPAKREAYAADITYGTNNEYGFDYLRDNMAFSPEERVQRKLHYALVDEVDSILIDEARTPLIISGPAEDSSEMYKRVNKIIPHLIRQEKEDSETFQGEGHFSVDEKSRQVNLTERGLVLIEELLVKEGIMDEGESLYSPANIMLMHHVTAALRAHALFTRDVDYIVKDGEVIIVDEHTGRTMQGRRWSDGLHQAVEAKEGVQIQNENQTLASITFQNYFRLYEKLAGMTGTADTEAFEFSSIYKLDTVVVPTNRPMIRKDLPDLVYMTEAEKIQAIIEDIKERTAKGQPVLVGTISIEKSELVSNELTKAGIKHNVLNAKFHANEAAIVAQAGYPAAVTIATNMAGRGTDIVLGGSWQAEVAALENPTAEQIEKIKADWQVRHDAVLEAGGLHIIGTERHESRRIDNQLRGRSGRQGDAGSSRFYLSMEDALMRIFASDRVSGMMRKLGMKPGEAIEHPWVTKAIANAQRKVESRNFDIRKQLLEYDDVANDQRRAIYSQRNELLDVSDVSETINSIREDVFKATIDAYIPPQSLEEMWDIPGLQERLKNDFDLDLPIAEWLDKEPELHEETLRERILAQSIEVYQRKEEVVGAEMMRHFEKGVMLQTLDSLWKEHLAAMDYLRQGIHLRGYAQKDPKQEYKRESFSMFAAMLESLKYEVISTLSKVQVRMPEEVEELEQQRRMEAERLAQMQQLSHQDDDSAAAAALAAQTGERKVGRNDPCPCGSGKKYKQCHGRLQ
Potency and affinity values are given separately.
Quick reference for Percent Effect among some compounds

Compound	Percent Effect
Cc1ccc(CN(C)CC(=O)NC2(C)CCS(=O)(=O)C2)cc1 (centres undefined)	-0.346%
c1cnnc(NCC2CN(CCN3CCCCC3)CCO2)c1 (centres undefined)	-2.02%
CC(=O)Nc1nc(C(=O)Nc2ccc(F)cc2)cs1	-2.09%
Cc1ccccc1N1CC2(CCN(S(=O)(=O)C3CC3)C2)CC1=O (centres undefined)	0.787%
CC1=N[C@@]2(CC[C@@H]3CN(CC(=O)N(C)C)C[C@@H]32)C(=O)N1CC(C)C	3.62%
c1ccc(CCNC2CCc3ncnn3C2)nc1 (centres undefined)	-0.356%
CCOCCCn1c(NC(=O)c2ccc(C)nc2)nc2ccccc21	-10.1%
O=C(c1cccs1)N1CC[C@H](O)[C@@H]1Cc1ccccc1	-8.07%
Cc1nc(C)n(CC2CN(CCCOc3ccccc3C)CCO2)n1 (centres undefined)	-2.1%
CN1CC(=O)N(c2cnn(C)c2)CC12CCN(C(=O)c1ccsc1)C2 (centres undefined)	-5.41%
O=C(Nc1ccc(N2CCCC2)nc1)N1CCc2sccc2C1	-5.59%
Cc1noc(C)c1CCC(=O)N1CCCN(Cc2cscn2)CC1	-1.71%
Cc1[nH]ccc1C(=O)N1CCCC(c2nccn2Cc2cscn2)C1 (centres undefined)	-7.46%
O=C1CC(c2ccc(C(=O)O)cc2)c2ncn(-c3cccc(F)c3)c2N1 (centres undefined)	-3.41%
CN(C)C(=O)N1CCn2nc(CNC(=O)CCC(F)(F)F)cc2C1	0.369%
O=C(NCCCNCC1CNc2ccnn2C1)c1ccccc1 (centres undefined)	0.663%
CC(C)n1[nH]c(=O)c2c1NC(=O)CC2c1ccc2ncccc2c1 (centres undefined)	-1.16%
Cc1cc2c(=O)n3c(nc2s1)CCN(C(=O)c1scnc1C)CC3	-1.99%
COc1cc(S(=O)(=O)N2CCCc3ccccc32)cc(C(=O)O)c1OC	-5.67%
CC(=O)c1ccc(N2CCCC(CO)(CCOc3ccccc3)C2)nc1 (centres undefined)	-1.73%
Cc1cnn(CC2CCCCN2Cc2nnc(C3CC3)n2C)c1 (centres undefined)	-1.18%
O=C(C1CCC1)N1CCCC1c1nnc2n1CCCCC2 (centres undefined)	-0.546%
COc1nc(C)cc(C)c1CNC(=O)N(C)Cc1cnn(C)c1	-2.85%
CCc1nc(CN2CCN(C(=O)c3cnccn3)CC2)cs1	-2.42%

----------
compounds and their reported Percent Effect
system: Trypanosoma cruzi; experiment: Trypanosoma cruzi phosphomannomutase and mannose-1-phosphate guanylyltransferase assay; format: functional; set-up: scale not given: direction of the effect not stated beside the values; conditions: 10 µM

Compound	Percent Effect
Cc1ccc2c(c1)OCCCC2NCc1nnc2n1CCCCC2 (centres undefined)	5.57%
Cc1nn(C)c(C)c1C1CCCN1C(=O)c1ccc(Cl)o1 (centres undefined)	4.88%
Cc1ccc(NC2CCN(C(=O)c3cc(C(N)=O)cs3)CC2)nn1	1.41%
c1cc(CN2Cc3nnn(CC4CC4)c3C(COCC3CC3)C2)co1 (centres undefined)	9.83%
c1ccc(Cn2cc3c(n2)C(CNCc2ccco2)OCC3)nc1 (centres undefined)	-4.49%
CCNC(=O)C1CCN(Cc2csc(-c3ccc(C)o3)n2)CC1	2.97%
Cc1cc(C(=O)N2CC[C@@H]3CN(S(C)(=O)=O)CCO[C@@H]3C2)c(C)o1	-3.62%
CNC(=O)[C@@]12CCO[C@@H]1CCN(Cc1scnc1C)C2	-7.4%
Cc1nc(CC(=O)N2CCCCC2c2ccn3ccnc3n2)cs1 (centres undefined)	-1.78%
CC(=O)N1CCO[C@@H]2CN(C(=O)c3cc(C)oc3C)CC[C@@H]2C1	-1.07%
CCN(CC)C(=O)c1nnn(Cc2ccccc2)c1OC	-4.52%
Cc1cc(CNC(=O)N2CCCN(Cc3ccccc3)CC2)no1	-5.38%
COCC(=O)N1CCN(Cc2coc(-c3cccc(F)c3)n2)CC1	-2.62%
CC(=O)N1CCN(CCNS(=O)(=O)c2ccc(C)c(F)c2)CC1	3.41%
CN(CCN1CCOCC1)C(=O)CCc1cccc(Cl)c1	-4.58%
CCOc1ncccc1CNC(=O)Nc1ccc(N(C)C)nc1	-9.89%
CCn1cnnc1CNC(=O)CCC(=O)c1ccc2c(c1)OCCO2	6.7%
O=C(C1CCOCC1)N1C[C@@H]2C[C@@H](c3nc(C4CC4)cs3)O[C@@H]2C1	3.57%
Cc1ccc(S(=O)(=O)NC(=O)c2cccc(OCC(N)=O)c2)s1	0.0944%
COCC(=O)N1CCC(c2cc(C(F)(F)F)n3ccnc3n2)CC1	3.75%
Cc1nccn1C1CCCN(C(=O)COCC(F)(F)F)C1 (centres undefined)	0.845%
CCc1nc(C2CCCN(C(=O)c3cn(C)nc3C)C2)no1 (centres undefined)	7.89%
Cn1nc(C#N)c2c1CN(C(=O)c1cccnc1)CCC2	-2.66%
CCc1ccc(NC(=O)C2OC(c3cccs3)=NN2C(C)=O)cc1 (centres undefined)	3.94%

----------
Reported Percent Effect values for a set of compounds
tested on: Trypanosoma cruzi; assay: Trypanosoma cruzi phosphomannomutase and mannose-1-phosphate guanylyltransferase assay; assay type: functional; set-up: scale not given: direction of the effect not stated beside the values; details: 10 µM

Compound	Percent Effect, %
Fc1ccc(-c2n[nH]cc2-c2ccnc(NCCN3CCCC3)n2)cc1	-8.23
O=C1CCSCC(C(=O)N2CCOCC2)N1 (centres undefined)	-2.74
CCOC(=O)N1CCN(c2nc(NC)c3ccccc3n2)CC1	4.52
Cc1cc(NC(=O)NCCc2ccsc2)n(C)n1	0.291
CC(C)CN1C[C@H]2CCN(c3ncccn3)CC[C@H]2S1(=O)=O	6.39
COCCNC(=O)c1ccc(C)c(-n2cccc2)c1	-3.8
CC(C(=O)Nc1ncccn1)N1CCCN(c2nccs2)CC1 (centres undefined)	-7.04
CCC(C)N(C)S(=O)(=O)c1ccc(CCNC(C)=O)s1 (centres undefined)	-2.62
CCn1nc(C)c(CCNC(=O)C2CCCN(CC(N)=O)C2)c1C (centres undefined)	9.02
O=C1CC2(CCN(CC3CC3)C2)CN1c1ccc2c(c1)OCO2 (centres undefined)	1.07
CN(C)C(C)(C)CNC(=O)C(C)(C)c1ccccc1F	-4.18
Cc1ccc(-c2nc(CN3CCOC(Cn4cccn4)C3)cs2)o1 (centres undefined)	7.14
CC(C)CCC(=O)NC(C)c1nnc2n1CCCCC2 (centres undefined)	2.42
OCC1CCCN1c1cc(N2CCC(OC3CCCC3)CC2)ncn1 (centres undefined)	3.04
O=C(COc1coc(CN2CCCCC2)cc1=O)Nc1ccccc1Cl	-2.16
c1cc(CNCC2OCCc3cn(CC4CCOCC4)nc32)ccn1 (centres undefined)	1.86
O=C1CC[C@H]2CN(Cc3ccc(Cl)s3)CC[C@H]2N1CCc1c[nH]cn1	4.37
Cc1cc(C)n(CC2CCCN2C(=O)c2ccc(C(N)=O)cn2)n1 (centres undefined)	2.56
Cc1cnn(CC2CCCCN2CCCS(N)(=O)=O)c1 (centres undefined)	-2.01
COc1cccc2c1OCC(NC(=O)NC1CCN(C3CC3)CC1)C2 (centres undefined)	4.77
O=C(CN1CC(n2cccn2)C1)NCCCc1ccccc1	6.41
COCCN1CC[C@@H]2O[C@@H](COCC(=O)N3CCCC3)CC[C@@H]21	7.94
Cc1cnn(CC2CN(CC(=O)NCCc3cccs3)CCO2)c1 (centres undefined)	-4.62
COC(=O)c1sccc1NC(=O)C1CCCN1C(=O)c1ccco1 (centres undefined)	-8.84

----------
biological target: Tyrosyl-tRNA synthetase, putative (Trypanosoma cruzi (strain CL Brener)) (UniProt Q4DSP6); test: Trypanosoma cruzi tyrosyl tRNA synthetase (TcYRS) _High Tyrosine SOP; assay type: functional; design: scale not given: in the data most compounds retested in dose-response had high values; settings: 30 µM
Sequence (Q4DSP6 as listed by the source): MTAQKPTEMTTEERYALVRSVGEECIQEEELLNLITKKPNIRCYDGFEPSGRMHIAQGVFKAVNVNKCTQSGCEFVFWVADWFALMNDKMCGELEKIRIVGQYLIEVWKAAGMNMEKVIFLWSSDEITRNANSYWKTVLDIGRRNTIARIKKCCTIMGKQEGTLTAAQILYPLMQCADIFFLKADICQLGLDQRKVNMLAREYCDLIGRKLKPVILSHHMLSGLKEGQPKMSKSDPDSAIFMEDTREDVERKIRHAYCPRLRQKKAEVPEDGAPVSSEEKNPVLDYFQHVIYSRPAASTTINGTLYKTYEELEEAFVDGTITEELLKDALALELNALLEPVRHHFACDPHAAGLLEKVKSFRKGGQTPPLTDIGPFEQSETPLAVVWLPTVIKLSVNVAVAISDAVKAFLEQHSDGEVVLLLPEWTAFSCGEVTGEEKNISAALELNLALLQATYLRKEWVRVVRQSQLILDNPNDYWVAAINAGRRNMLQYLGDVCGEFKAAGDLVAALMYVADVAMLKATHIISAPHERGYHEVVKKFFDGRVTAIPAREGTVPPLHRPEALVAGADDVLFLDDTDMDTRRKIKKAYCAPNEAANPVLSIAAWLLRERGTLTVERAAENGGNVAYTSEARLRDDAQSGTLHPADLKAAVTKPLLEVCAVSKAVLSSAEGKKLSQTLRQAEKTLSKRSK

Molecule	Percent Effect [%]
COc1ccccc1CC(=O)N1CC[C@@]2(CCCO2)[C@@H](OC)C1	-1.06
O=C(CCN1CCOC(Cn2cccn2)C1)NC1CCCC1 (centres undefined)	8.33
Cc1cn2c(n1)CCC(NC(=O)c1nc(C)ncc1Cl)C2 (centres undefined)	4.76
Cc1nn(C)c2c(N3CCN(C(=O)NC4CCCCC4)CC3)ncnc12	2.12
Cc1cc(C)nc(N2Cc3cnn(Cc4ccc(F)cc4)c3C2)n1	-6.01
CCCNC(=O)CNc1cc(C(=O)N2CCSCC2)ccc1C	5.21
O=C(NCCCNCC1CNc2ccnn2C1)c1ccccc1 (centres undefined)	5.82
Cn1cnc2c1C(COCC1CC1)CN(Cc1ccc3c(c1)OCO3)C2 (centres undefined)	2.97
CCS(=O)(=O)N1Cc2nccn2CC(COc2cccnc2)C1 (centres undefined)	7.29
CN(C)CC1(O)CCN(S(=O)(=O)c2ccc(F)c(F)c2)C1 (centres undefined)	3.23
O=C(Nc1ccc(N2CCCC2)nc1)N1CCc2ccccc2C1	15.8
CN(Cc1ccco1)Cc1cncc2c1CCN(c1ncccn1)C2	-1.04
Cc1cccc(-c2ccc3nc(C4CCN(CC5CC5)CC4)nn3c2)c1	3.12
Cc1occc1C(=O)N1CCC2(CCC(C(=O)NCC3CC3)O2)CC1 (centres undefined)	11.6
Cc1cc(C(=O)NCc2ccnc(N3CCN(C)CC3)c2)c(C)s1	8.13
Cc1noc(C)c1-c1cnc(CC2CCN(C(=O)c3cc[nH]n3)C2)cn1 (centres undefined)	8.6
CCOCCCNC(=O)c1nn(CC)cc1Cl	5.29
Cc1ccc(NC2CCN(C(=O)c3cnc(C)s3)CC2)nn1	5.79
Cc1ccc(-c2cccc(-c3ccn(CCN4CCCC4)n3)c2)nn1	5.82
O=C(CCCNc1ncccn1)N1CCCC(n2cccn2)C1 (centres undefined)	-3.12
CC(=O)NCCc1ccc(C(=O)N2CCCC2c2cnn(C)c2)cc1 (centres undefined)	4.43
COc1ccccc1C(O)CNC(=O)NCc1cccnc1OC (centres undefined)	1.48
CC1N(CC2CC2)C(=O)COC12CCN(Cc1nccs1)CC2 (centres undefined)	4.17
Cc1ncsc1C(=O)N(Cc1cccnc1)C1CC1	1.44

meta.source: ChEMBL document CHEMBL3988442
